- measured target: EGFR (human) (UniProt P00533)
- Sequence (P00533 whole entry, looked up): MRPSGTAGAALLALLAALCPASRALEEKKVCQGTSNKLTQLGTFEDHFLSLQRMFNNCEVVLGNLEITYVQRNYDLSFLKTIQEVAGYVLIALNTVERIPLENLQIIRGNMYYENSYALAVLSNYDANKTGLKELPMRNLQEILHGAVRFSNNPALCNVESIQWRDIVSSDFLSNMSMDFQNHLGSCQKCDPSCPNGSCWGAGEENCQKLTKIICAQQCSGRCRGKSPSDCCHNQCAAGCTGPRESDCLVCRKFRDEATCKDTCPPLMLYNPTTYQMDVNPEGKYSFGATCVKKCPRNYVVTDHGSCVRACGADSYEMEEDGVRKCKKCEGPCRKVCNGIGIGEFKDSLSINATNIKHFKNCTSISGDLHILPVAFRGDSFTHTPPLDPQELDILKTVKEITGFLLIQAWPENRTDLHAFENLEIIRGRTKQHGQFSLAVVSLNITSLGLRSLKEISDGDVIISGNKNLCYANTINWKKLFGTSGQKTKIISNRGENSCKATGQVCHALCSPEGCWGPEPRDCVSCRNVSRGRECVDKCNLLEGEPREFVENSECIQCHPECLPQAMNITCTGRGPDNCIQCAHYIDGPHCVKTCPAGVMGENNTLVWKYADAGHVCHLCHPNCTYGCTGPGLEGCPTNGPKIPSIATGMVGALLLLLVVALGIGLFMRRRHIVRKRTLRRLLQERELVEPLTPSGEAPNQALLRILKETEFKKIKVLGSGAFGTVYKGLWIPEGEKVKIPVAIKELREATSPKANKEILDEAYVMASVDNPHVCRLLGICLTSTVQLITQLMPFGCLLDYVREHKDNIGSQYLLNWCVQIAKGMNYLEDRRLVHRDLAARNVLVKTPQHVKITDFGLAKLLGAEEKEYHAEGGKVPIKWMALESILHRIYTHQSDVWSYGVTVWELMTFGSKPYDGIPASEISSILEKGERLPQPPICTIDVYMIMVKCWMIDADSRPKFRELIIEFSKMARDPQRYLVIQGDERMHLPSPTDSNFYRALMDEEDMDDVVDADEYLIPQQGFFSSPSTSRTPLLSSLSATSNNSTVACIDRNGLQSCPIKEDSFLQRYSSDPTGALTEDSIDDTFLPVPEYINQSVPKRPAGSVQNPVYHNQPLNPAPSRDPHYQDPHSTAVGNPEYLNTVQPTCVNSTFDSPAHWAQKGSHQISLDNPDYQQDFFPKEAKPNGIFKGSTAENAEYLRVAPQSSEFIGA
Listed next: entries and their corresponding IC50.

Worked examples, 2 molecules total:
> print(dat)
                                   molecule                measured.target      val
1  COc1cc(F)c(NC(=O)/C=C/Cl)cc1Nc1ncc(Cl)c(Nc2ccccc2P(C)(C)=O)n1  EGFR (human) (UniProt P00533)  < 50 nM
2  COc1cc(N2CCCC2)c(NC(=O)C#CCCN2CCN(C)CC2)cc1Nc1ncc(Cl)c(Nc2ccccc2P(C)(C)=O)n1  EGFR (human) (UniProt P00533)  < 50 nM

## Input Check EGFR (human) (UniProt P00533) data and give IC50 for C=CC(=O)Nc1cc(Nc2ncc(Cl)c(Nc3ccccc3P(C)(C)=O)n2)c(OC)cc1N1CCC(N2CCN(C)CC2)C1 (stereo not drawn) .
## Output < 50 nM

###

- measured target: EGFR (Human), P00533 [T790M/L858R]
- Sequence (P00533 whole entry T790M/L858R, looked up): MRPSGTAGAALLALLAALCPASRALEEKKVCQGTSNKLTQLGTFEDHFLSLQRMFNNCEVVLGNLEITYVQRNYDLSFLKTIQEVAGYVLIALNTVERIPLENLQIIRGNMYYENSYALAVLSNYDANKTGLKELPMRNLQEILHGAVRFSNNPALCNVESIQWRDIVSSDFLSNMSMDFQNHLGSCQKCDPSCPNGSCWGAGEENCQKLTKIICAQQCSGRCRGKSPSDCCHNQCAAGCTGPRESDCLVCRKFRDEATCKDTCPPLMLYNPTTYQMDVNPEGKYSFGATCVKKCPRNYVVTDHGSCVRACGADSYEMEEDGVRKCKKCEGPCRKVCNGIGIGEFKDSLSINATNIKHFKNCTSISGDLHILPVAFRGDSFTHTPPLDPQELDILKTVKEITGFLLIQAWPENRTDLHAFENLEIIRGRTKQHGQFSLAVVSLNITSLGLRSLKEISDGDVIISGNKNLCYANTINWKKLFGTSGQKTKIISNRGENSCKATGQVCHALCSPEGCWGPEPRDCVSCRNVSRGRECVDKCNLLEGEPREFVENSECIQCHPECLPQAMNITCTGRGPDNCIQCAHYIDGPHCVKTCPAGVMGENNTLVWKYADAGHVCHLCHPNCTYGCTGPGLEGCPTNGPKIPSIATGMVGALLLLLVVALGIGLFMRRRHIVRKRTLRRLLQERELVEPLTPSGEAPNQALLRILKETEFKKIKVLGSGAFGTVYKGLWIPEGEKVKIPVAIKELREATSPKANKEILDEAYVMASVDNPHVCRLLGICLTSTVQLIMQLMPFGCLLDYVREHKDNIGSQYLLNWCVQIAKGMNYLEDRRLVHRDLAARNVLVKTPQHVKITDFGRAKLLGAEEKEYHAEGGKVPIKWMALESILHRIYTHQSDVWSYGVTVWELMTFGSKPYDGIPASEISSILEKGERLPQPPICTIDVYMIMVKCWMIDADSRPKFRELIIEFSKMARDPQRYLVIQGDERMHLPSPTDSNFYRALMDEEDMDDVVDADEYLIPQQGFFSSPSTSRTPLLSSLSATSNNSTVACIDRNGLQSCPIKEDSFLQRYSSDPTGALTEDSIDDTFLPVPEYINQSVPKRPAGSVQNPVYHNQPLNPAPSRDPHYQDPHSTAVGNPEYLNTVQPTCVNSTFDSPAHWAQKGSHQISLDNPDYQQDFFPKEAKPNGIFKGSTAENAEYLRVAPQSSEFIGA
- run conditions: baf3
pIC50: −log10 of the molar value.
Listed next: entries and their corresponding pIC50.

Worked examples, 3 molecules total:
> print(dat)
                                   molecule           val
1  C=CC(=O)Nc1cc(Nc2ncc(Cl)c(Nc3ccccc3P(C)(C)=O)n2)c(OC)cc1OC1CN(C)C1  6.60 to 7.00
2  C=CC(=O)Nc1cc(Nc2ncc(Cl)c(Nc3ccccc3P(C)(C)=O)n2)c(OC)cc1OCc1cccnc1  6.60 to 7.00
3  C=CC(=O)Nc1cc(Nc2ncc(Cl)c(Nc3ccccc3P(C)(C)=O)n2)c(OC)cc1OC(COC)CN(C)C (stereo not drawn)        > 7.30

## Input Using the record for "CC#CC(=O)Nc1cc(Nc2ncc(Cl)c(Nc3ccccc3P(C)(C)=O)n2)c(OC)cc1N1CCC(N2CCN(C)CC2)CC1" , state its measured pIC50.
## Output > 7.30

## Input Using the record for "Cc1ccc(NC(=O)CCl)cc1Nc1ncc(Cl)c(Nc2ccccc2P(C)(C)=O)n1" , state its measured pIC50.
## Output > 7.30

## Input Using the record for "C=CC(=O)Nc1cc(Nc2ncc(Cl)c(Nc3ccccc3P(C)(C)=O)n2)c(OC)cc1C#CCN1CCCC1" , state its measured pIC50.
## Output > 7.30

## Input Using the record for "C=C(CN1CCC(N2CCN(C)CC2)CC1)C(=O)Nc1ccc(OC)c(Nc2ncc(Cl)c(Nc3ccccc3P(C)(C)=O)n2)c1" , state its measured pIC50.
## Output > 7.30

## Input Using the record for "C=CC(=O)Nc1cc(Nc2ncc(Cl)c(Nc3ccccc3P(C)(C)=O)n2)c(OC)cc1N(C)CCN(C)CCF" , state its measured pIC50.
## Output > 7.30

###

Entries below carry reported IC50 on EGFR (human), P00533 [L858R].
Sequence (P00533 whole entry L858R, looked up): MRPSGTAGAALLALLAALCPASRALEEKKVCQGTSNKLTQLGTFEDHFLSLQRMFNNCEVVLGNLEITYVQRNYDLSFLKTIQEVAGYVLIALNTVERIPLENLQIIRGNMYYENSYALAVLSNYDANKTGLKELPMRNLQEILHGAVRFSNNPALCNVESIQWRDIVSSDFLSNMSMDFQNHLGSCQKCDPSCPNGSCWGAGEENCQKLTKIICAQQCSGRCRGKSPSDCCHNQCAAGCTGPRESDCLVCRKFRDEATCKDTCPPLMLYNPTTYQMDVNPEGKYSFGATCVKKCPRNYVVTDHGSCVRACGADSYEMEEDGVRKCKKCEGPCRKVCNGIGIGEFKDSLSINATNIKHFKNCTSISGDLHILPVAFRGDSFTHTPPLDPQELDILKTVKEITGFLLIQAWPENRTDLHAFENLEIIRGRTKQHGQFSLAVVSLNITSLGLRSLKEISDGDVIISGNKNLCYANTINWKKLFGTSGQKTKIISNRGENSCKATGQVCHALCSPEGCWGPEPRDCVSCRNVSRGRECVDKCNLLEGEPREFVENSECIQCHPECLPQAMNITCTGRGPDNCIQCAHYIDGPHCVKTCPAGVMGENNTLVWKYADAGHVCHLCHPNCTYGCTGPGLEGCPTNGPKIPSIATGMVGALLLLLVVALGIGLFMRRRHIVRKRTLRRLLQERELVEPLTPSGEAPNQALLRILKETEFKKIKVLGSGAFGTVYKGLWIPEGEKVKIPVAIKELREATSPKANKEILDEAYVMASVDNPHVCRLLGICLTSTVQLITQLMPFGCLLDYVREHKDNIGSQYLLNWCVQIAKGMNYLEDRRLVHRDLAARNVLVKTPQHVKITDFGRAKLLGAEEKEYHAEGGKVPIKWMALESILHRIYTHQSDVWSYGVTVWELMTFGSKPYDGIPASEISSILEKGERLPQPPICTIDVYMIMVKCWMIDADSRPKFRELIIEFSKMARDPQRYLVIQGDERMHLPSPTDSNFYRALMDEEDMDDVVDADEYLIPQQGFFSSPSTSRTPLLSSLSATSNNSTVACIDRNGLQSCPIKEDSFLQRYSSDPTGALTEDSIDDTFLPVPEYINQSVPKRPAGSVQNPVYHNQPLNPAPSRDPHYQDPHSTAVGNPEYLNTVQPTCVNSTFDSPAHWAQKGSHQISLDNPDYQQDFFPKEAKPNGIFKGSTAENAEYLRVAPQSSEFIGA

## Input Check EGFR (human), P00533 [L858R] data and give IC50 for "C=CC(=O)Nc1cc(Nc2ncc(Cl)c(Nc3ccccc3P(C)(C)=O)n2)c(OC)cc1OCc1ccncc1" .
## Output < 50 nM

## Input Check EGFR (human), P00533 [L858R] data and give IC50 for "COc1ccc(NC(=O)/C=C/C(=O)N(C)C)cc1Nc1ncc(Cl)c(Nc2ccccc2P(C)(C)=O)n1" .
## Output 50 to 100 nM

## Input Check EGFR (human), P00533 [L858R] data and give IC50 for "C=C(CN1CCCCC1)C(=O)Nc1ccc(OC)c(Nc2ncc(Cl)c(Nc3ccccc3P(C)(C)=O)n2)c1" .
## Output < 50 nM

## Input Check EGFR (human), P00533 [L858R] data and give IC50 for "C=CC(=O)Nc1cc(Nc2ncc(Cl)c(Nc3ccccc3P(C)(C)=O)n2)c(OC)cc1OCCN1CCN(C)CC1" .
## Output < 50 nM

Data provenance: the Kinase Knowledgebase extract (Sharma et al. 2016)
